Data origin, for the record: paper PMC9645528

# SYSTEM: Dicer (full-length) (Mus musculus, UniProt Q8R418 1-1916)
# Sequence (Q8R418 whole entry): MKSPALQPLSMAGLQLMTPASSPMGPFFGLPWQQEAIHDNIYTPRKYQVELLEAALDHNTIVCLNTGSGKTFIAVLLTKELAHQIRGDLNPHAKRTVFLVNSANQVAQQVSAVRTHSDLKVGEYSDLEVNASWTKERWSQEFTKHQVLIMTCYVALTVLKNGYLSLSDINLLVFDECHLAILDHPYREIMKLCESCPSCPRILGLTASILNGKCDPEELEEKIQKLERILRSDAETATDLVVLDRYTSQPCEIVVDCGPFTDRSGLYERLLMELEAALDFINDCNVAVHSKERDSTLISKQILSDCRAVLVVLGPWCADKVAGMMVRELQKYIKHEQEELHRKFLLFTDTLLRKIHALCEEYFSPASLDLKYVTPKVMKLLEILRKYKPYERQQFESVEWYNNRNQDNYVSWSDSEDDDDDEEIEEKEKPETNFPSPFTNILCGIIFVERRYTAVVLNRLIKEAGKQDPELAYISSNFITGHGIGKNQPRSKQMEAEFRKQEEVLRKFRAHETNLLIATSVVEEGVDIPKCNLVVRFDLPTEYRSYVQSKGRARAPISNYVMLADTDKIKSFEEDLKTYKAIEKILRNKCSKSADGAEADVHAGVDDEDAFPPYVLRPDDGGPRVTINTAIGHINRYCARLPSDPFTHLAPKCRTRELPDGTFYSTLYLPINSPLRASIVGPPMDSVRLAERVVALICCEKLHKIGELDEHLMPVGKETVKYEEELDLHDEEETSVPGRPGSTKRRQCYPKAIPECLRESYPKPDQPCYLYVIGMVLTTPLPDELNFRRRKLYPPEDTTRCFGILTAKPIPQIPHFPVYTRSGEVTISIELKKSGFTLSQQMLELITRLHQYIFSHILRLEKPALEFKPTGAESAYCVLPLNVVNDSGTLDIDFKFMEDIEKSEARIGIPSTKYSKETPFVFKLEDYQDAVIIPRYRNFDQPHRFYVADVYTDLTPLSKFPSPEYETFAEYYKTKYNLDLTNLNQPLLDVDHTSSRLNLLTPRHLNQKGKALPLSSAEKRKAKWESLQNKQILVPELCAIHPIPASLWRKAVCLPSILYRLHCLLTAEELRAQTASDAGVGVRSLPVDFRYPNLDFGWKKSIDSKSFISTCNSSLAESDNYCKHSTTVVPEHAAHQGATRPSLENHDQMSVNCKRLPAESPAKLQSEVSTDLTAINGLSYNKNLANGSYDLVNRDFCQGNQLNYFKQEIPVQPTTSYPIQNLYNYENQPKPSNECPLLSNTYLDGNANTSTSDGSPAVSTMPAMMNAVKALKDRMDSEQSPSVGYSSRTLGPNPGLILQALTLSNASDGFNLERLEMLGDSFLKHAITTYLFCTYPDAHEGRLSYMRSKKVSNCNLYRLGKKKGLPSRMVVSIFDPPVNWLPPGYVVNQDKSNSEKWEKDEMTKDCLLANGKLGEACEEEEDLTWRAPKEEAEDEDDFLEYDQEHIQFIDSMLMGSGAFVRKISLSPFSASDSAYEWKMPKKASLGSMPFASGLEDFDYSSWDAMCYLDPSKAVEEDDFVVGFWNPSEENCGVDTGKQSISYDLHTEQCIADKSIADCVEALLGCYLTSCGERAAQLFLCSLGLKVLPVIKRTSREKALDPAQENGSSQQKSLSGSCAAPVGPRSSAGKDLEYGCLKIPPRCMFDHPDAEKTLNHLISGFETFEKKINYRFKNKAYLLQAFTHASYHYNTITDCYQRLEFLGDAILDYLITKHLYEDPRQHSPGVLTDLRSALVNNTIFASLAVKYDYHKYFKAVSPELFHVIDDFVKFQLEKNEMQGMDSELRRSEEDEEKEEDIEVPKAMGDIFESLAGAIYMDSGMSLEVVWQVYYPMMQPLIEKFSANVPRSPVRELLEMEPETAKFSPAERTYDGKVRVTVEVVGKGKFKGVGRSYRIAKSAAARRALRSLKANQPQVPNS
# MEASUREMENT PROTOCOL: EMSA; EMSA conditions not in the material; protein storage/SEC buffer 50 mM Tris pH 8.0, 150 mM NaCl, 1 mM DTT, 2 mM MgCl2 (2 mM CaCl2 for WT Dicer structural work)
# PARTICULARS: protein: recombinant; tags: N-term TwinStrep-HA-TEV; C-term TEV-2xFLAG-8xHis; hairpin, 30 bp stem, GCAA tetraloop, 3' overhang UU
ASSAY METRIC: pKd
pKd here: minus log base 10 of the concentration, concentration in moles per litre.

Input: Give pKd for the following binder: 30bp stem-loop (structured_RNA) RNA: AGAGGAGAGGGACAAUCAUAAAGGCCACUCGCAAGAGUGGCCUUUAUGAUUGUCCCUCUCCUCUUU
Output: 6.92
